molecular target: PDGF-Ra (Homo sapiens); construct: host or cells: G-292 human osteosarcoma cells; test: Inhibitory activity against PDGF-Ra phosphorylation by PDGF-AA stimulation using G292; assay type: cell-based; settings: > means inhibition at indicated concentration not more than 50%, < and << not less than 50%; read-out: PDGF (E) IC50
As shown below, each of these compounds has a reported pIC50 value.
Note on units: pIC50 is unitless, being -log10 of a concentration expressed in mol/L.

The examples below pair each entry with its known result.
| Compound | pIC50 |
| --- | --- |
| C#CCC(CC)OC(=O)Nc1cc(C)c(Oc2ccnc3cc(OC)c(OC)cc23)cc1C (centres unmarked) | 7.59 |
| COc1cc2nccc(Oc3ccc(NC(=S)NC(=O)c4cc(Cl)cc(Cl)c4)cc3)c2cc1OC | 7.68 |
| CCN(CC)CCNC(=O)Nc1cc(C)c(Oc2ccnc3cc(OC)c(OC)cc23)cc1C | 7.05 |

// next item, pIC50 requested
Lab book: pIC50 of COc1ccccc1CC(=O)NC(=S)Nc1ccc(Oc2ccnc3cc(OC)c(OC)cc23)cc1 noted as 7.54

* * *

biological target: c-kit (Homo sapiens, UniProt P10721); construct: MO7e (human megakaryocytic leukemia cell line) which had been arrested for 20 hr; endogenous in cells; host or cells: MO7e human megakaryocytic leukemia cell line; assay: Inhibitory activity against c-kit autophosphorylation (MO7e cells, h-SCF); format: cell-based; conditions: MO7e cells, h-SCF 50 ng/ml; read-out: c-kit IC50
Sequence (P10721 26-976): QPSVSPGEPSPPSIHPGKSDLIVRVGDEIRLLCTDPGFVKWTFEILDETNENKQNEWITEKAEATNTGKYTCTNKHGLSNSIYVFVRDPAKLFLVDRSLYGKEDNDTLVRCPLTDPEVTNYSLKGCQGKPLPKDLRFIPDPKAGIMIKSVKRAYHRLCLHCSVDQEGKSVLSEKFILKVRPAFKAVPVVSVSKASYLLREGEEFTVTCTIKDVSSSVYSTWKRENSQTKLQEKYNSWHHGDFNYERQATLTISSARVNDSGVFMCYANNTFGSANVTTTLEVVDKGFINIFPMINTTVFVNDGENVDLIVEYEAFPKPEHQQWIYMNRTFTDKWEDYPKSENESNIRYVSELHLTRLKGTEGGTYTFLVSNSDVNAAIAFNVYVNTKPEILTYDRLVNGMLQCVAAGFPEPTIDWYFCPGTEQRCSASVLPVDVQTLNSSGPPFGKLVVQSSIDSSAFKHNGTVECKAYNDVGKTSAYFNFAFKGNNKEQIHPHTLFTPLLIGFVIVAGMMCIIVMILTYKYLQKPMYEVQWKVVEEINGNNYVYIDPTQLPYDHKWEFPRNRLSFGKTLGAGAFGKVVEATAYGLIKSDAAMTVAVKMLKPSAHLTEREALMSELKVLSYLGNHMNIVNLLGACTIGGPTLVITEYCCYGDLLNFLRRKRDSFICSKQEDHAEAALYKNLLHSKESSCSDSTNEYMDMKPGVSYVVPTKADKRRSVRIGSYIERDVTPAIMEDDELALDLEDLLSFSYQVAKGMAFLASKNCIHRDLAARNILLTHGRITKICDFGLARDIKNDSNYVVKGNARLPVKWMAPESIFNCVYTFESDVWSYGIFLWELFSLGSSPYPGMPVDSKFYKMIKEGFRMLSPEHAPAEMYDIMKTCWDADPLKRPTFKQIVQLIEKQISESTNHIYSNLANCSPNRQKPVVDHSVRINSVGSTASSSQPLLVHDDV
Endpoint Name: IC50 (nM)
Give the value, in units of nM, as a plain number.

Example results:
| Compound | Assay Target | Observed Value |
| --- | --- | --- |
| COc1cc2ncnc(Oc3ccc(NC(=O)OCCCOc4ccc(F)cc4)cc3)c2cc1OC | c-kit (Homo sapiens, UniProt P10721) | 41 |
| COc1ccc(OCCCOC(=O)Nc2cc(C)c(Oc3ccnc4cc(OC)c(OC)cc34)cc2C)cc1 | c-kit (Homo sapiens, UniProt P10721) | 328 |
| C=CCCCOC(=O)Nc1ccc(Oc2ccnc3cc(OC)c(OC)cc23)c(C)c1C | c-kit (Homo sapiens, UniProt P10721) | 34 |

So, COc1cc2nccc(Oc3cc(C)c(NC(=O)OCCCOc4ccccc4F)cc3C)c2cc1OC ? Its IC50 was 49

So for COc1cc2ncnc(Oc3ccc(NC(=O)OCCc4ccccc4)c(Cl)c3)c2cc1OC , the logged IC50 turned out to be 197

# IC50 (compound: COc1cc2nccc(Oc3ccc(NC(=O)OCCCSc4ccccn4)c(C)c3C)c2cc1OC ) is 37

For reference, reported IC50 for COc1cc2ncnc(Oc3ccc(NC(=O)OC(C)c4ccc(C)cc4)cc3)c2cc1OC (centres unmarked) stands at 475

Measured IC50 of COc1cc2nccc(Oc3cc(C)c(NC(=O)OCC4CCC4)cc3C)c2cc1OC : 105

The compound COc1cc2nccc(Oc3ccc(NC(=O)OCC4CCC4)cc3)c2cc1OC showed IC50 equal to 87

* * *

target: c-kit (Homo sapiens); construct: MO7e (human megakaryocytic leukemia cell line) which had been arrested for 20 hr; endogenous in cells; host or cells: MO7e human megakaryocytic leukemia cell line; assay: Inhibitory activity against c-kit autophosphorylation (MO7e cells, h-SCF); format: cell-based; details: MO7e cells, 50 ng/ml h-SCF; read-out: c-kit IC50
Endpoint Name: pIC50
Keep in mind that pIC50 stands for -log10 of concentration in molar terms.

Known results for compounds:
| Compound | Endpoint Name | Observed Value |
| --- | --- | --- |
| COc1cccc(NC(=O)COc2ccc(Oc3ncnc4cc(OC)c(OC)cc34)cc2)c1 | pIC50 | 7.52 |
| COc1cc2nccc(Oc3ccc(NC(=O)NCCN4CCOCC4)c(C)c3C)c2cc1OC | pIC50 | 6.76 |
| CCCC(CCN1CCN(C)CC1)OC(=O)Nc1ccc(Oc2ccnc3cc(OC)c(OC)cc23)cc1 (centres unmarked) | pIC50 | 6.13 |
| COc1cc2nccc(Oc3ccc(OCCNc4cccc(C)c4)cc3)c2cc1OC | pIC50 | 7.15 |

Then this compound:
Measured pIC50 of COc1cc2nccc(Oc3ccc(NC(=S)NC4CCN(Cc5ccccc5)CC4)c(C)c3C)c2cc1OC : 6.14

* * *

target: PDGF-Ra (Homo sapiens, UniProt P16234); construct: host or cells: G-292 human osteosarcoma cells; assay: Inhibitory activity against PDGF-Ra phosphorylation by PDGF-AA stimulation using G292; assay type: cell-based; details: Pharmacological Test Example 1; > means inhibition at indicated concentration not more than 50%, < and << not less than 50%; read-out: PDGF (E) IC50
Sequence (P16234 24-1089): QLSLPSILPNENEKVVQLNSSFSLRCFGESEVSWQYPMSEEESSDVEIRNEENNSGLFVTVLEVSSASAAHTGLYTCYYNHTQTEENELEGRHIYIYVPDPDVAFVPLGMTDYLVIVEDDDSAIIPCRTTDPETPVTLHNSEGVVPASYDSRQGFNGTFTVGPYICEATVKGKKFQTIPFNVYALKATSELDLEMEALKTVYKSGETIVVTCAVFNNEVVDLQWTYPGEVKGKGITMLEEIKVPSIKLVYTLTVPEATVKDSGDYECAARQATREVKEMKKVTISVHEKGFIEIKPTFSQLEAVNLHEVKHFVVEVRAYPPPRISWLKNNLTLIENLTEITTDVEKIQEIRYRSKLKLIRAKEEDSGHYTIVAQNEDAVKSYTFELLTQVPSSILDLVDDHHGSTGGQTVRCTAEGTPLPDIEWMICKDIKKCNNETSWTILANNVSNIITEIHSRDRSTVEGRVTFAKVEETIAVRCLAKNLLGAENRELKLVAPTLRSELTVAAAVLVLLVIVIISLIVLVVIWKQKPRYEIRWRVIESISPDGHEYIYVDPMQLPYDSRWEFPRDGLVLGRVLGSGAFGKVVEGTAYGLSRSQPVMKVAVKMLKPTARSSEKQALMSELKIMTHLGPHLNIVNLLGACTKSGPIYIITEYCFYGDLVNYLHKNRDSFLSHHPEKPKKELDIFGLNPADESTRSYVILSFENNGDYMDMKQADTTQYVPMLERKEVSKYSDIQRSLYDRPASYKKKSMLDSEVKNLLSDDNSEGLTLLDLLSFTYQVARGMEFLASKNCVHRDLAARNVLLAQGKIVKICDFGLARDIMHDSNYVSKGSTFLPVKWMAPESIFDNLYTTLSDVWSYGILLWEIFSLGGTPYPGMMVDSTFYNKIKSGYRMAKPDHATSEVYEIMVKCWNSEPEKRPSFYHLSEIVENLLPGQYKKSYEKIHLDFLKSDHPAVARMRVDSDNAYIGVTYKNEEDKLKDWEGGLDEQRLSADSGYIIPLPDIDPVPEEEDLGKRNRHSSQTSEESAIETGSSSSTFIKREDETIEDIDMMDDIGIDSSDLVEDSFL
Endpoint Name: IC50

The following compounds have reported results that may help.
| Query Smiles | Observed Value |
| --- | --- |
| COc1cc2nccc(Oc3cc(C)c(NC(=O)OCc4cccc(Cl)c4)cc3C)c2cc1OC | 21 nM |
| COc1cc2ncnc(Oc3ccc(NC(=O)OCCCOc4ccccc4Cl)c(C)c3C)c2cc1OC | 17 nM |
| COc1cc2nccc(Oc3ccc(NC(=O)OCC4CCCCCC4)cc3)c2cc1OC | < 10 nM |
| CCC(CC)OC(=O)Nc1ccc(Oc2ncnc3cc(OC)c(OC)cc23)cc1Cl | 42 nM |
| COc1cc2nccc(Oc3cc(C)c(NC(=O)OCc4ccc5ccccc5c4)cc3C)c2cc1OC | 58 nM |
| COc1cc2nccc(Oc3cc(C)c(NC(=O)OCc4ccccc4Cl)cc3C)c2cc1OC | 12 nM |
| COc1cc2nccc(Oc3ccc(NC(=O)OCCCCN(C)C)c(C)c3C)c2cc1OC | 57 nM |

Proceed to the following item.
Record COc1cc2nccc(Oc3ccc(NC(=O)Oc4ccc(-c5ccccc5)cc4)cc3)c2cc1OC . Reported IC50: 15 nM

* * *

biological target: c-kit (Homo sapiens, UniProt P10721); construct: MO7e (human megakaryocytic leukemia cell line) which had been arrested for 20 hr; endogenous in cells; host or cells: MO7e human megakaryocytic leukemia cell line; experiment: Inhibitory activity against c-kit autophosphorylation (MO7e cells, h-SCF); assay type: cell-based; settings: MO7e cells, h-SCF 50 ng/ml; read-out: c-kit IC50
A collection of compounds and their measured IC50
Please respond with the number in nM and leave the unit unwritten.

These solved cases illustrate the format of a correct answer.
| Compound | Observed Value |
| --- | --- |
| COc1cc2nccc(Oc3ccc(NC(=O)OC4CCCCCC4)cc3)c2cc1OC [Example 286] | 54 |
| CCCC(OC(=O)Nc1ccc(Oc2ccnc3cc(OC)c(OC)cc23)cc1)c1ccccc1 (stereo not shown) [Example 184] | 369 |
| COc1cccc(COC(=O)Nc2ccc(Oc3ccnc4cc(OC)c(OC)cc34)cc2)c1 [Example 226] | 72 |

Alright, here's another compound for you.
Short answer for COc1cc2ncnc(Oc3ccc(NC(=O)OC(C)c4ccccc4Cl)c(Cl)c3)c2cc1OC (stereo not shown) [Example 16] : IC50 was 495

* * *

# inhibition at 1 µM values compiled below
target: c-kit (Homo sapiens, UniProt P10721); construct: MO7e (human megakaryocytic leukemia cell line) which had been arrested for 20 hr; endogenous in cells; host or cells: MO7e human megakaryocytic leukemia cell line; assay: Inhibitory activity against c-kit autophosphorylation (MO7e cells, h-SCF); assay type: cell-based; conditions: Mo7e, figure in parentheses in −( ); at 1000 nM
The reply should read as a number followed by its unit.

For orientation, consider the following solved cases.
| Compound | inhibition at 1 µM |
| --- | --- |
| COc1cc2nccc(Oc3ccc(NC(=S)NC(=O)c4ccc(Cl)cc4)cc3Cl)c2cc1OC [Example 978] | 22% |
| COc1cc2nccc(Oc3ccc(NC(=S)NC(=O)c4ccc(C)cc4)c(F)c3)c2cc1OC [Example 964] | 46% |
| COc1cc2ncnc(Oc3ccc(NC(=O)OC(C)c4cccc(F)c4)c(Cl)c3)c2cc1OC (stereo not shown) [Example 101] | 27% |

Now examine the next entry.
response.value for CCCCC(CCCC)OC(=O)Nc1ccc(Oc2ncnc3cc(OC)c(OC)cc23)cc1Cl [Example 372] (field: inhibition at 1 µM) = 14%

* * *

IC50 for assorted compounds
Target: PDGF-Ra (Homo sapiens, UniProt P16234)
Construct: host or cells: G-292 human osteosarcoma cells
Assay: Inhibitory activity against PDGF-Ra phosphorylation by PDGF-AA stimulation using G292
Type: cell-based
Details: Pharmacological Test Example 1; > means inhibition at indicated concentration not more than 50%, < and << not less than 50%; read-out: PDGF (E) IC50
Description: Measurement of Inhibitory Activity Against PDGF-Ra Phosphorylation by PDGF-AA Stimulation Using G292 […] This solubilized cell solution was transferred to a 96-well plate coated with aniti-phosphotyrosine antibody PY-20, and a reaction was allowed to proceed at 4° C. overnight. […] Color development was carried out using a color development kit for peroxidase (Sumitomo Bakelite Co., Ltd.), and the absorbance was measured at 450 nm.
Only the number, expressed in nM, is required.

// IC50 (PDGF-Ra (Homo sapiens, UniProt P16234)) for CCC(CC)OC(=O)Nc1cc(C)c(Oc2ccnc3cc(OC)c(OC)cc23)cc1C = 28
